# TGI values compiled below
test system: MDA-MB-231 breast; experiment: NCI tumour cell line growth inhibition, 48 h

Example results:
1) O=C(NCCN(CCNC(=O)c1cccc(=O)n1O)CCNC(=O)c1cccc(=O)n1O)c1cccc(=O)n1O ... > 100 µM
2) COc1ccc(NC(/C(C(=O)C(=O)/C=C(\O)c2ccccc2)=C(\O)c2ccccc2)c2ccc(OC)cc2)cc1 (centres undefined) ... > 100 µM
3) O=C(Nc1ccc(Cl)cc1)N1CCN(c2ccc3nncn3n2)CC1 ... > 100 µM
4) CCOC(=O)c1cc2c(n1Cc1ccccc1OC)-c1oncc1CCC2 ... > 100 µM
5) C[C@]12CC[C@H](O)CC1=CC[C@@H]1[C@@H]2CC[C@]2(C)NC(=O)/C(=C\c3ccccc3)C[C@@H]12 ... 38.9 µM

What reported TGI corresponds to Oc1cc(O)c2c(c1)OC(c1ccc(O)c(O)c1)C(O)C2c1c(O)cc(O)c2c1OC(c1ccc(O)c(O)c1)C(O)C2 (centres undefined) on MDA-MB-231 breast? > 100 µM

What reported TGI corresponds to COc1cc2c(cc1O)C(=O)O[C@@H]1CC=C3CCN(C)[C@H]3[C@H]21 on MDA-MB-231 breast? > 25 µM

What reported TGI corresponds to O=c1[nH]c(=O)n(C2OC(CO)C(O)C2O)cc1F (centres undefined) on MDA-MB-231 breast? > 100 µM

What reported TGI corresponds to CCCC(C(=O)Nc1cccc2[nH]cnc12)C(=O)OCC (centres undefined) on MDA-MB-231 breast? > 100 µM

---

test system: HT29 colon; assay: NCI tumour cell line growth inhibition, 48 h
# TGI values compiled below

Example results:
1. C(=C\c1ccc(OCC2CO2)cc1)/C1=NCOC1 (stereo unspecified) ... 25.8 µM
2. CN(C)CCNC(=O)c1cccc2c1nc(-c1ccncc1)c1ccccc12 ... 19.4 µM
3. CSc1cc(C(C)(C)C)ccc1C(O)c1ccc(C(C)(C)C)cc1SC ... 19.6 µM
4. O=C(O)CCSC(=O)Nc1ccccc1 ... > 100 µM
5. O=Cc1ccc(-c2ccc(S(=O)(=O)O)cc2)o1 ... > 100 µM

Which TGI is listed for COC(=O)[C@H](CCCCNC(=O)OCc1ccccc1)NC(=O)[C@@H](NC(=O)Nc1cc(C(F)(F)F)cc(C(F)(F)F)c1)C(C)C ? > 10 µM

Which TGI is listed for COC(=O)C(=O)C(C(C)=O)C(=O)C(=O)Nc1ccc(C)cc1C (stereo unspecified) ? > 100 µM

---

tested on: OVCAR-5 ovarian; assay: NCI tumour cell line growth inhibition, 48 h
quantity measured: TGI

Example results:
1) COc1ccc2[nH]c3c(O)c(-c4c(C)cc5c([nH]c6ccc(OC)cc65)c4O)c(C)cc3c2c1 ... 7.34 µM
2) N[C@H]1CCN(c2c(F)cc3c(=O)c(C(=O)O)cn4c3c2Oc2c-4ccc3c2ccc2ccccc23)C1 ... > 100 µM
3) C=CCC1C(=O)CC2(C)C(CC=C)C(=O)CC12C (configuration not stated) ... > 100 µM
4) O=C1NC(N2CCCCC2)=N/C1=C\c1ccco1 ... > 100 µM
5) COC1(OC)C2C=CC1C([C@](C)(N)CO)C2 (some centres not stated) ... > 100 µM
6) Cc1cn(C2CC(O)C(COC(N)=O)O2)c(=O)[nH]c1=O (configuration not stated) ... > 100 µM
7) Cc1ccc(S(=O)(=O)NNC(=O)Nc2ccc([N+](=O)[O-])cc2)cc1 ... > 100 µM
8) CC(=O)c1cccc(Nc2nc3ccccc3c3[nH]c4ccccc4c23)c1 ... 96.3 µM

Which TGI is listed for O=C(NC(CCCCN1C(=O)c2ccccc2C1=O)P(=O)(Oc1ccccc1)Oc1ccccc1)OCc1ccccc1 (configuration not stated) ? > 100 µM

Which TGI is listed for CC12CCC(=O)[C@@]1(C)CCCC2O (some centres not stated) ? > 100 µM

Which TGI is listed for Oc1cc(O)c2c(c1)OC(c1ccc(O)c(O)c1)C(O)C2c1c(O)cc(O)c2c1OC(c1ccc(O)c(O)c1)C(O)C2 (configuration not stated) ? > 100 µM

Which TGI is listed for Cc1cc(S(=O)(=O)NC2=NCC(C)(C)CN2)c(S)cc1Cl ? 51.1 µM

Which TGI is listed for Cc1cc(OCc2nn(CN3CCN(C)CC3)c(=S)n2/N=C/c2ccc(F)cc2)ccc1Cl ? 49.5 µM

Which TGI is listed for Nc1ncnc2c1ncn2CCCCC(=O)O ? > 100 µM

Which TGI is listed for Clc1ccc(N2N=C(c3cccc(Nc4ccncc4)c3)CC2c2ccc(Br)cc2)cc1 (configuration not stated) ? 3.1 µM

Which TGI is listed for CC(=O)c1ccc(Oc2c3ccccc3nc3occc23)cc1 ? > 100 µM

Which TGI is listed for CC(O)C1OC(n2ccc(=O)[nH]c2=O)CC1n1cncn1 (configuration not stated) ? > 100 µM

Which TGI is listed for COc1cccc(-c2nn(-c3ccccc3)cc2-c2ccnc(NCCCNS(=O)(=O)c3ccc(C(F)(F)F)cc3)c2)c1 ? > 100 µM

---

tested on: OVCAR-8 ovarian; assay: NCI tumour cell line growth inhibition, 48 h
quantity measured: TGI

Example results:
1) N#CC1=C(c2ccccc2)OC2(N)OC(c3ccccc3)=C(C#N)C12C#N (centres undefined) ... > 100 µM
2) C=C1C(=O)O[C@H]2[C@H]1CC/C(COC(=O)N[C@H](Cc1c[nH]c3ccccc13)C(=O)OC)=C\CC[C@@]1(C)O[C@@H]21 ... 9.13 µM
3) C/C(=N/N)c1sc(-c2nc(C)c(/C(C)=N\N)s2)nc1C ... > 100 µM

Shifting focus to the compound that follows.
Which TGI is listed for CC12CCC(=O)[C@@]1(C)CCCC2O (some centres undefined) ? > 100 µM

---

system: EKVX NSCLC; experiment: NCI tumour cell line growth inhibition, 48 h
quantity measured: GI50

1) CC(C)(C)OC(=O)N1Cc2cc3ccccc3nc2C1CO (stereo not given) ... > 100 µM

What reported GI50 corresponds to OCC1OC(n2cnc3c(NCc4ccco4)ncnc32)C(O)C1O (stereo not given) on EKVX NSCLC? 4.73 µM

What reported GI50 corresponds to CCN(CC)CCCNc1cc(OC)c(OC)c2cccnc12 on EKVX NSCLC? 16.4 µM

What reported GI50 corresponds to CC(=O)O[C@H]1CC[C@]2(C)C3C(=O)C[C@]4(C)[C@@H](C(C)CCC(=O)O)CC[C@@]4(C)[C@@H]3CC[C@H]2C1(C)C (stereo not given in full) on EKVX NSCLC? 10.2 µM

What reported GI50 corresponds to O=C(CC1Sc2ccccc2NC1=O)NNc1ccc(F)cc1 (stereo not given) on EKVX NSCLC? > 100 µM

What reported GI50 corresponds to C=CCN1C(=O)[C@]2(SC1=S)[C@H](c1cccc(Cl)c1)CN(C)[C@]21C(=O)NC2C=CC(Cl)=C[C@H]21 (stereo not given in full) on EKVX NSCLC? 4.54 µM

---

# TGI values compiled below
tested on: SN12C renal; assay: NCI tumour cell line growth inhibition, 48 h

Which TGI is listed for COc1cc(NCCC2CCCCN2)c2ncccc2c1OC (configuration not stated) ? 6.77 µM

Which TGI is listed for CCC(=C(c1ccc(OCCN2CCCC2)cc1)c1ccc(OCCN2CCCC2)cc1)c1ccc(Cl)cc1 ? 1.1 µM

Which TGI is listed for O=C(c1ccc(Nc2nccc(NCCCCNc3ccnc4cc(Cl)ccc34)n2)cc1)N1CCCCC1 ? 9.29 µM

Which TGI is listed for Cn1c(=O)[nH]c2c(c1=O)C(=O)CN2 ? > 100 µM

Which TGI is listed for NS(=O)(=O)c1cc(C(=O)O)c(Cl)c([N+](=O)[O-])c1Cl ? > 100 µM

---

test system: RXF 393 renal; assay: NCI tumour cell line growth inhibition, 48 h
quantity measured: TGI (µM)
Give a bare numeral; the unit µM is implied.

Example results:
1) Cc1ccc2c(c1)CC1(C2)Cc2ccc(C)cc2C1=O (stereo not given) ... 54.4
2) CC1(C)CC[C@]2(CO)CC[C@]3(C)C(=CC[C@@H]4[C@@]5(C)CCNCC(C)(C)[C@@H]5CC[C@]43C)[C@@H]2C1 ... 4.83
3) Cc1nn(-c2ccccc2)c2nc(C)n(-c3ccc(Br)cc3)c(=O)c12 ... 0.972
4) CN(C)CCNC(=O)c1cccc2c1nc(-c1ccncc1)c1ccccc12 ... 7.55
5) CC(=O)OCC1OC(n2c(O)c(N=NC(N)=S)c3ccc([N+](=O)[O-])cc32)C(OC(C)=O)C1OC(C)=O (stereo not given) ... 45.9

What reported TGI corresponds to COC(=O)/C(C#N)=C/c1cc(C(C)(C)C)c(O)c(C(C)(C)C)c1 on RXF 393 renal? 14.8

What reported TGI corresponds to CCN(CC)CCCC(C)Nc1ccnc(/C=C/c2ccc(Cl)cc2)c1 (stereo not given) on RXF 393 renal? 2.92

What reported TGI corresponds to N/C(=N/S(=O)(=O)c1cc(C(=O)Nc2ccc(F)cc2)c(Cl)cc1SCc1ccccc1)Nc1ccccc1O on RXF 393 renal? 3.94

Taken from PubChem BioAssay (NCI).
